experiment: Example 2: open-label dose-escalation pharmacokinetic and safety study in children and adolescents with ADHD; type: in vivo, human; conditions: both sexes, human, plasma, po, 2 mg, single 2 mg oral dose, Day 1; adolescents 13-17 yrs, ADHD patients, N = 14
measured-attribute: half-life (h)

1) N=C(N)NC(=O)Cc1c(Cl)cccc1Cl :: 17.9

----------
assay: Example 4: Phase I single-dose crossover bioequivalence study, 2.5 mg versus 2 mg tablets, healthy adult volunteers; type: in vivo, human; settings: human, in vivo, po, 2.5 mg, Vz/F
measured-attribute: Vd/F (L)

1) N=C(N)NC(=O)Cc1c(Cl)cccc1Cl :: 915

----------
assay: Example 4: Phase I single-dose crossover bioequivalence study, 2.5 mg versus 2 mg tablets, healthy adult volunteers; assay type: in vivo, human; conditions: human, in vivo, 2.5 mg, AUC∞
measured-attribute: AUC(0-inf)

1. N=C(N)NC(=O)Cc1c(Cl)cccc1Cl :: ~85 ng·h/mL

----------
test: Example 4: Phase I single-dose crossover bioequivalence study, 2.5 mg versus 2 mg tablets, healthy adult volunteers; type: in vivo, human; conditions: human, in vivo, po, 2 mg, tmax
measured-attribute: Tmax (h)

1. N=C(N)NC(=O)Cc1c(Cl)cccc1Cl :: 6

----------
Experiment: Example 2: open-label dose-escalation pharmacokinetic and safety study in children and adolescents with ADHD
Format: in vivo, human
Conditions: both sexes, human, plasma, oral, 2 mg, dose of 2 mg of guanfacine, fasted patients ages 13-17 suffering from ADHD; read-out: AUC∞
Description: Objective: The objective of this study was to assess the pharmacokinetics of controlled-release guanfacine after a single 2 mg dose or multiple doses of 2 mg and 4 mg from Table 2. Methods: An open-label, dose-escalation study in male and female children (aged 6-12 years) and adolescents (aged 13-17 years) with ADHD. […] Their electrocardiogram readings (ECGs) were within normal ranges, and their blood pressure measurements were within the 95th percentile for their age, height, and gender. […]
measured-attribute: AUC(0-inf)

1. N=C(N)NC(=O)Cc1c(Cl)cccc1Cl :: ~47.2 ng·h/mL

----------
assay: Example 3: Phase I single-dose crossover bioequivalence/dose proportionality study, 1 mg, 2 mg, 4 mg tablets, healthy adult volunteers; assay type: in vivo, human; settings: human, in vivo, 1 mg, median Tmax
measured-attribute: Tmax

1. N=C(N)NC(=O)Cc1c(Cl)cccc1Cl :: ~6 h

----------
assay: Example 3: Phase I single-dose crossover bioequivalence/dose proportionality study, 1 mg, 2 mg, 4 mg tablets, healthy adult volunteers; format: in vivo, human; settings: human, in vivo, po, 2 mg, tmax
measured-attribute: Tmax (h)

1) N=C(N)NC(=O)Cc1c(Cl)cccc1Cl [guanfacine] :: 6

----------
assay: Example 2: open-label dose-escalation pharmacokinetic and safety study in children and adolescents with ADHD; format: in vivo, human; details: both sexes, human, plasma, po, 4 mg, Day 28, 4 mg once daily oral; adolescents 13-17 yrs, ADHD patients, N = 14; read-out: Tmax
measured-attribute: Tmax (h)

1) N=C(N)NC(=O)Cc1c(Cl)cccc1Cl [guanfacine] :: 4.97

----------
experiment: Example 3: Phase I single-dose crossover bioequivalence/dose proportionality study, 1 mg, 2 mg, 4 mg tablets, healthy adult volunteers; type: in vivo, human; settings: human, in vivo, po, 2 mg, AUC0-∞
measured-attribute: AUC(0-inf) (ng·h/mL)

1. N=C(N)NC(=O)Cc1c(Cl)cccc1Cl :: 58.1
